# Tested on: pigweed
# method: Test B pre/postemergence pigweed
# Format: in vivo, Amaranthus retroflexus
# condition-summary: Postemergence, Rate 125 g/ha; scale 0 to 10, 0 is no effect, 10 is complete control
quantity: Plant response rating, Redroot pigweed
Reply with just the number.

Supply recorded Plant response rating, Redroot pigweed for CC(C)N(C(=O)n1oc(=O)n(N2C(C)CCCC2C)c1=O)c1ccc(F)cc1 (stereo not shown) here.
0

Fill in reported Plant response rating, Redroot pigweed for this entry: CC1CC1n1c(=O)on(C(=O)N(c2ccc(Cl)cc2)C(C)C)c1=O (stereo not shown)
0

Look up and state reported Plant response rating, Redroot pigweed for Cc1ccc(N(C(=O)n2oc(=O)n(-c3ccc4ccccc4c3)c2=O)C(C)C)cc1
0

Look up Plant response rating, Redroot pigweed of Cc1c(-n2c(=O)on(C(=O)N(c3ccccc3)C(C)C)c2=O)ccc2ccccc12 and report it.
0

---

# Tested on: pigweed
# method: Test B pre/postemergence pigweed
# Assay type: in vivo, Amaranthus retroflexus
# condition-summary: Postemergence, Rate 500 g/ha; scale 0 to 10, 0 is no effect, 10 is complete control
quantity: Plant response rating, Redroot pigweed

Determine its reported Plant response rating, Redroot pigweed: CC(C)N(C(=O)n1oc(=O)n(CCNC(=O)CCl)c1=O)c1ccccc1 [Compound 492]
7

// fetch Plant response rating, Redroot pigweed given entry COC(=O)CCCn1c(=O)on(C(=O)N(c2ccc(F)cc2F)C(C)C)c1=O [Compound 513]
7

State, in one line, measured Plant response rating, Redroot pigweed of CC(C)N(C(=O)n1oc(=O)n(COCc2ccccc2)c1=O)c1ccc(F)cc1F [Compound 520]
0

Provide Plant response rating, Redroot pigweed value for the following molecule: CC(C)N(C(=O)n1oc(=O)n(CC2CCC2)c1=O)c1ccc(F)cc1F [Compound 521]
4

Report Plant response rating, Redroot pigweed, nothing else, for this molecule: CC(C)N(C(=O)n1oc(=O)n(CCCCF)c1=O)c1ccc(F)cc1F [Compound 522]
9

Return the recorded Plant response rating, Redroot pigweed value; entry: CC(C)N(C(=O)n1oc(=O)n(C(C)C(=O)c2ccccc2)c1=O)c1ccc(F)cc1F (stereo not drawn) [Compound 511]
7

---

For each entry below, report its Rape plant response rating value.
# Test system: rape
# method: Test B pre/postemergence rape
# Type: in vivo, Brassica napus
# condition-summary: Rate 125 g/ha, Postemergence; scale of 0 to 10 where 0 is no effect and 10 is complete control

For CC(C)n1c(=O)on(C(=O)N(c2ccc(Cl)cc2Cl)C2CCC2)c1=O [Compound 319] , write its Rape plant response rating.
0

Provide measured Rape plant response rating value, entry: COC(Cn1c(=O)on(C(=O)N(c2ccc(F)cc2)C(C)C)c1=O)OC [Compound 317]
0

Complete the entry with Rape plant response rating for CCOC(=O)C(C)N(C(=O)n1oc(=O)n(C2CCCCC2)c1=O)c1ccc(F)cc1 (stereo not shown) [Compound 280]
0

For the molecule CC(C)N(C(=O)n1oc(=O)n(CC(C)(C)C)c1=O)c1ccc(F)cc1F [Compound 277] , give its reported Rape plant response rating.
2

---

# Test system: purple nutsedge
# method: Test B pre/postemergence purple nutsedge
# Type: in vivo, Cyperus rotundus
# condition-summary: Postemergence, Rate 250 g/ha; scale 0 to 10, 0 no effect, 10 complete control
Provide the reported Nutsedge plant response rating of each item.
No unit in the answer, please; the number alone is enough.

In one line, give reported Nutsedge plant response rating of the entry CC(C)N(C(=O)n1oc(=O)n(C(C)(C)C)c1=O)c1ccc(Cl)cc1 .
0

Look up and state reported Nutsedge plant response rating for Cc1c(Cl)cccc1-n1c(=O)on(C(=O)N(c2ccc(F)cc2)C(C)C)c1=O
0

Check the records and state Nutsedge plant response rating for COc1cccc(C)c1-n1c(=O)on(C(=O)N(c2ccc(F)cc2F)C(C)C)c1=O
0

Quick one: give measured Nutsedge plant response rating for CCN(C(=O)n1oc(=O)n(-c2c(C)cccc2C)c1=O)C1CCCCC1
0

Answer with reported Nutsedge plant response rating of Cc1nn(C)c(Cl)c1-n1c(=O)on(C(=O)N(c2ccc(F)cc2F)C(C)C)c1=O
0

Supply measured Nutsedge plant response rating of Cc1cccc(C)c1-n1c(=O)on(C(=O)N(c2ccc(F)cc2)C(C)C)c1=O in your reply.
0

Using the record for CCCn1c(=O)on(C(=O)N(c2ccc(F)cc2)C(C)C)c1=O , state its measured Nutsedge plant response rating.
0

Specify Nutsedge plant response rating for CC(C)N(C(=O)n1oc(=O)n(C(C)C)c1=O)c1ccc(Cl)cc1 and stop.
0
